Provide the reported IC50 of each item.
# experiment_notes: In vitro cytotoxicity, HL-60
# Type: cell-based
# test_conditions: human, HL-60 cells (human promyelocytic leukemia cell line)
Numbers only, in µM.

Dear colleague, could you send me IC50 for each of the items below? Thanks.
1. CC1=C[C@H]2C[C@@H](C)CC[C@@H]2[C@@](C)(C(=O)C2=C(O)[C@@H](CO)N(C)C2=O)[C@H]1/C=C/C=C/CO
2. C/C=C/C=C/[C@H]1C(C)=C[C@H]2C[C@@H](C)CC[C@@H]2[C@@]1(C)C(=O)C1=C(O)[C@@H](CO)N(C)C1=O
3. C/C=C/C=C/[C@H]1C(C)=C[C@H]2C[C@@H](C)CC[C@@H]2[C@@]1(C)C(=O)C1=C(O)[C@@H](CO)NC1=O

[22, 3.4, 11]

Dear colleague, could you send me IC50 for each of the items below? Thanks.
1. C/C=C/C=C/[C@@H]1C(C)=C[C@@H]2C[C@@H](C)CC[C@H]2[C@]1(C)C(=O)C1=C(O)C(CO)NC1=O (some centres unmarked)
2. C/C=C/C=C/[C@@H]1C(C)=C[C@@H]2C[C@@H](C)CC[C@@H]2[C@@]1(C)C(=O)C1=C(O)[C@@H](CO)NC1=O [Compound 4, N-demethyl-cis-phomasetin]
3. C/C=C/[C@@H]1C=C[C@@H]2C[C@H](C)CC[C@H]2[C@]1(C)C(=O)C1=C(O)[C@H](CO)N(C)C1=O
4. C/C=C/[C@H]1C=C[C@H]2C[C@H](C)CC[C@H]2[C@]1(C)C(=O)C1=C(O)[C@H](CO)N(C)C1=O [Compound 3, cis-equisetin]

[12, 22, 12, 14]
